Reported IC50 values follow for various molecules
# system: Aurora B (Homo sapiens)
# Construct: Active Aurora B enzyme (recombinant residues 1-344)
# Sequence (Q96GD4 whole entry, the tested form may be a part): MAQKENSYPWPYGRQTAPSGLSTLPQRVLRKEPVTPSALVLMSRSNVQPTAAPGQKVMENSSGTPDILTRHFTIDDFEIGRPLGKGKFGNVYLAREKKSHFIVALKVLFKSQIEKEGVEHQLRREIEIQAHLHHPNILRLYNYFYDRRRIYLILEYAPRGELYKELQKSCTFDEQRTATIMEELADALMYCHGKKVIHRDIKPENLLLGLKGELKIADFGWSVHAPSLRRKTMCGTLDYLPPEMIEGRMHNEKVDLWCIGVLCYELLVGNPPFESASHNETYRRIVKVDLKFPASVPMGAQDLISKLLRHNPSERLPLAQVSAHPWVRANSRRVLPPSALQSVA
# Sequence (Q9NQS7 826-918 partner limits assumed): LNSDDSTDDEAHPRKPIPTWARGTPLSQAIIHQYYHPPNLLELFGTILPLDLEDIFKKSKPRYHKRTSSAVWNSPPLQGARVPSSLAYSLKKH
# protocolNotes: Aurora B enzyme assay (time-resolved fluorescence, histone H3 peptide)
# conditionDetails: 1 mM ATP, 1 hour
Supply the numeric figure in nM, leaving out any unit text.

Previously resolved entries follow.
>  <chemicalString>
Cn1cc(-c2n[nH]c3cc(-c4ccc(NC(=O)Nc5ccc(Cl)cc5)cc4)ccc23)cn1

>  <assayResult>
24.7

$$$$
>  <chemicalString>
Cc1cc(NC(=O)Nc2ccc(-c3ccc4c(-c5cnn(C)c5)n[nH]c4c3)cc2)no1

>  <assayResult>
10.3

$$$$

We next turn to a different molecule, shown below.
Data request: Output IC50 of `Cn1cc(-c2n[nH]c3cc(-c4ccc(NC(=O)Nc5cccc(F)c5)cc4)ccc23)cn1`
Data returned: 19.2

###

Read-out record for Aurora A (Homo sapiens, UniProt O14965): pIC50
Scale: negative log10 of molar concentration, which is what pIC50 denotes.

Example compounds with recorded pIC50:
>  <chemicalString>
O=C(Nc1ccc(-c2ccc3c(-c4cnn[nH]4)n[nH]c3c2)cc1)Nc1cccc(F)c1

>  <pIC50>
4.99

$$$$
>  <chemicalString>
O=C(Nc1ccc(-c2ccc3c(-c4cnn(CCO)c4)n[nH]c3c2)cc1)Nc1cccc(F)c1

>  <pIC50>
6.53

$$$$
>  <chemicalString>
Cn1cc(-c2n[nH]c3cc(-c4ccc(NC(=O)Nc5cccc(F)c5)cc4)ccc23)cn1

>  <pIC50>
6.43

$$$$

Data request: Fetch value of pIC50 on Aurora A (Homo sapiens, UniProt O14965) for `Cn1cc(-c2n[nH]c3cc(-c4ccc(NC(=O)Nc5ccc(C(F)(F)F)cc5)cc4)ccc23)cn1` .
Sequence (O14965 whole entry): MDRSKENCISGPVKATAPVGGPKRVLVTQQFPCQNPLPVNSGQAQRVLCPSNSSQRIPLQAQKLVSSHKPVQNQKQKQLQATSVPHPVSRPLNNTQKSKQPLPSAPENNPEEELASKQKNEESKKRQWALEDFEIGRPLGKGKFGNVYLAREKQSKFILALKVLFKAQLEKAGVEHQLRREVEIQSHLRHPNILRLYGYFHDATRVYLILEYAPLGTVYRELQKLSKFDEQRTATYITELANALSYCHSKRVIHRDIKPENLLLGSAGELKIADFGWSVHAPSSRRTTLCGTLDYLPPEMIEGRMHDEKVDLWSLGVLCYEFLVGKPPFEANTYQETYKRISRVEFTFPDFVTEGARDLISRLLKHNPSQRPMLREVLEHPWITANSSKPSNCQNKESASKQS
Data returned: 4.97

###

Listing of recorded pIC50 by entry.
# system: UniProtKB P35968
# Sequence (P35968 20-1356, species assumed): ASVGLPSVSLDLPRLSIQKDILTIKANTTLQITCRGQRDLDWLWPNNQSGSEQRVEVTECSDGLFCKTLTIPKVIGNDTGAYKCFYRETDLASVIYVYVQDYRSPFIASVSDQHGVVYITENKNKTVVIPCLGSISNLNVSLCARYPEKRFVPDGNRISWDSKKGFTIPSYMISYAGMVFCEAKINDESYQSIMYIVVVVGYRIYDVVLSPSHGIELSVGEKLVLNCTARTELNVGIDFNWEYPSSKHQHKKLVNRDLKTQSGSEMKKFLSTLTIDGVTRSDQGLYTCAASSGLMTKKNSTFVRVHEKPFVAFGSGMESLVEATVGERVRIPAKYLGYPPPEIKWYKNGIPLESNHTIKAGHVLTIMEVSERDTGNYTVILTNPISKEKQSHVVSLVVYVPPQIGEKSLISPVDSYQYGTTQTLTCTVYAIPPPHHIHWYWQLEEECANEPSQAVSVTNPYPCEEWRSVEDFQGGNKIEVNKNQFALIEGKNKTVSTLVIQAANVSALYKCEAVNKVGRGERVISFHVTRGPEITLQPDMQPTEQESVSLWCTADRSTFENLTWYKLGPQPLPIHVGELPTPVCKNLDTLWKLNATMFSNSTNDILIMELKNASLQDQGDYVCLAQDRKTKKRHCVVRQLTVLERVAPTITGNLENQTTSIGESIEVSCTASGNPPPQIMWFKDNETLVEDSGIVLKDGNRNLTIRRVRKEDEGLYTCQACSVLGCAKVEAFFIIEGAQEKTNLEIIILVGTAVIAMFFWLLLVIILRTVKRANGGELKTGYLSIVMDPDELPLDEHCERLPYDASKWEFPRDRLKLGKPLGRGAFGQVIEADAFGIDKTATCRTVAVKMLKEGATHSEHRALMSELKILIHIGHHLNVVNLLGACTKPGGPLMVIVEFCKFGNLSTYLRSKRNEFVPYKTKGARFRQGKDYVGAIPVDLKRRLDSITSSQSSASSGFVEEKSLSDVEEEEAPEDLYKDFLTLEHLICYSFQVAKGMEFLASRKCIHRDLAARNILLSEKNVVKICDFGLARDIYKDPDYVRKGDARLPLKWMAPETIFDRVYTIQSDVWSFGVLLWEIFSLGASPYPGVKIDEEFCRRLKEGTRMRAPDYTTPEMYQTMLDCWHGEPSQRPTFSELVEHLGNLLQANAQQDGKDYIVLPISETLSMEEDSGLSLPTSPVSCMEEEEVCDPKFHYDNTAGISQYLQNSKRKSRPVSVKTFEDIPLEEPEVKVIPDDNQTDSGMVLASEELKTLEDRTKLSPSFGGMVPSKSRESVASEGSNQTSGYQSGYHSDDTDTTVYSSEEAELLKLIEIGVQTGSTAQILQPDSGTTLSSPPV
# protocolNotes: KDR cell assay
# Type: cell-based
Quick note: pIC50 means taking -log10 of the concentration in moles per liter.

// known answers, use as guide
>  <molecule>
Cn1cc(-c2n[nH]c3cc(-c4ccc(NC(=O)Nc5ccc(C(F)(F)F)cc5)cc4)ccc23)cn1 [Example 19]

>  <observationType>
pIC50

>  <assayResult>
6.66

$$$$
>  <molecule>
O=C(Nc1ccc(-c2ccc3c(-c4cn[nH]c4)n[nH]c3c2)cc1)Nc1cccc(F)c1 [Example 9]

>  <observationType>
pIC50

>  <assayResult>
6.52

$$$$
>  <molecule>
O=C(Nc1ccc(-c2ccc3c(-c4cnn(CCO)c4)n[nH]c3c2)cc1)Nc1cccc(F)c1 [Example 10]

>  <observationType>
pIC50

>  <assayResult>
6.69

$$$$
>  <molecule>
Cc1cccc(NC(=O)Nc2ccc(-c3ccc4c(-c5cnn[nH]5)n[nH]c4c3)cc2)c1 [Example 3]

>  <observationType>
pIC50

>  <assayResult>
6.50

$$$$

Data request: Provide pIC50, system UniProtKB P35968, entry Cn1cc(-c2n[nH]c3cc(-c4ccc(NC(=O)Nc5cccc(Cl)c5)cc4)ccc23)cn1 [Example 22]
Data returned: 7.32

Data request: Answer with pIC50 of Cc1cc(NC(=O)Nc2ccc(-c3ccc4c(-c5cnn(C)c5)n[nH]c4c3)cc2)no1 [Example 30] measured for UniProtKB P35968.
Data returned: 6.91

Data request: Give the observed pIC50 of O=C(Nc1ccc(-c2ccc3c(-c4cnn(C5CCNCC5)c4)n[nH]c3c2)cc1)Nc1cccc(F)c1 [Example 16] for UniProtKB P35968.
Data returned: 6.87

Data request: Fetch value of pIC50 on UniProtKB P35968 for Cc1cccc(NC(=O)Nc2ccc(-c3ccc4c(-c5cnn(C)c5)n[nH]c4c3)cc2)c1 [Example 2] .
Data returned: 7.34

Data request: Identify measured pIC50 obtained with UniProtKB P35968 for Cn1cc(-c2n[nH]c3cc(-c4ccc(NC(=O)Nc5cccc(F)c5)cc4)ccc23)cn1 [Example 1] .
Data returned: 7.06

Data request: Print UniProtKB P35968 pIC50 for Cn1cc(-c2n[nH]c3cc(-c4ccc(NC(=O)Nc5ccccc5Cl)cc4)ccc23)cn1 [Example 23] .
Data returned: 6.45

Data request: Give pIC50 for this entry on UniProtKB P35968: Cc1cccc(NC(=O)Nc2ccc(-c3ccc4c(-c5cnn(CCO)c5)n[nH]c4c3)cc2)c1 [Example 12]
Data returned: 6.75

Data request: Given O=C(Nc1ccc(-c2ccc3c(-c4cnn(CCN5CCOCC5)c4)n[nH]c3c2)cc1)Nc1cccc(F)c1 [Example 6] , report its pIC50 on UniProtKB P35968.
Data returned: 6.73
